Listed below: protein stability index values for each entry.
Test: protein stability index of a GFP-peptide fusion (GPS, HEK-293T) (PSI 1-6); higher = more stable;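 note: 24-mer peptide tiles fused after GFP, lentivirally expressed, FACS-sorted into six equal bins by GFP/DsRed ratio, decoded by Illumina sequencing, PSI is the read-weighted mean bin number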
Conditions: treatment: MLN4924 1 uM, 8 h; c terminus: a fixed tail appended

# Seq Text, protein stability index
rows = [
    ("VSCPEGRADCASESACSSDSLDEA [PWWP2B]", 5.41),
    ("INEDLKTCSRVDYCLLSDHGCEYS [MATN2]", 3.35),
    ("GPAASEGAEQPPDLHCVLVTNPHS [GADD45A]", 4.95),
    ("MEGTPTIKSKKKLLQIIDTTLLKC [VPS39]", 2.36),
    ("WGLEEEDFQPREEAMLYHNQTAEL [P3H4]", 4.5),
    ("LLASLTGGVLIDRYGRRTAIILSS [SLC2A12]", 3.06),
    ("MAGAPDERRRGPAAGEQLQQQHVS [ATP23]", 4.57),
    ("EQPRLEFLMRKCGWFVRELRVEFA [FBXO33]", 2.12),
    ("AEREALQARLRDVSRREGALGWAP [ZBED3]", 3.92),
    ("QGQAAAPASGSGADSEPARHIFSF [TRIM55]", 3.79),
    ("PLFEDVQMLRKTVKDEAHQAQKDP [PPP2R5C]", 5.3),
    ("WGGQEDREPAGRWKEGRPRVEESG [PBXIP1]", 5.05),
    ("LILELVSGGELFDFLAEKESLTED [DAPK3]", 2.49),
    ("SILRAPAYPLELQGQPDPAPRPGP [MOSPD3]", 4.39),
    ("PILRLLPQGISPVSQHWATWALYN [ZER1]", 2.95),
    ("QQLVSFSESGSLGNSSGSDVTSLS [ISL2]", 4.72),
    ("LPNKQVLGLSKLARIVEIYSRRLQ [GCH1]", 2.08),
    ("NYECNLYTFLYLVCISTKTQCSEE [FEM1B]", 2.81),
    ("YYHRGHVDPANDTFDIDPMVVTDC [MCOLN1]", 3.78),
    ("GTLIGVGQSVTAVGRIIAPLLSGV [MFSD9]", 2.2),
    ("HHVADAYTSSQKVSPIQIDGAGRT [TOR1AIP2]", 3.74),
    ("KSLEGDLEDLKDQIAQLEASLAAA [LMNB1]", 4.23),
    ("AESKGTGREKPGPLDFEAYSAAAL [FCHO1]", 5.04),
    ("PCAAAREGRLERRECGLAAPRFSF [IRX6]", 2.89),
    ("LEPMKSRAPQLHLEYRFYEQLGSG [CSNK1G3]", 2.63),
    ("EGDTVSQELLDTVLVNLVPAHKNL [PDS5B]", 3.94),
    ("TPLHVAAFLGDAEIIELLILSGAR [ANKRD44]", 2.52),
    ("SLKEELMCLKKNHEEEVSVLRCQL [KRT36]", 3.23),
    ("VIVQLHKLRHLDISRDRLSSYYKF [ZER1]", 2.56),
    ("QDHFHVFVGDLSPEITTEDIKAAF [TIA1]", 3),
    ("PIFVNSPTLDAPGGRALVVRKVPP [SMAD6]", 3.34),
    ("KRQVPTEQAQAYAERLGVTFFEVS [RAB40B]", 3.23),
    ("SFVLSSLQLGEGVEFDVLPAFDAL [OAS1]", 2.26),
    ("VSGSWERDQQVEAAQRALVEVLGP [RETREG3]", 4.08),
    ("DKLSQKSSSSKLSRSPLKIVKKPK [EPB41L3]", 4.79),
    ("SPVLLGWVEQAYADKCVCGPSAPP [TIAF1]", 2.86),
    ("LKTFVKQTDHIKGIRQITSDDFCT [GFOD1]", 3.26),
    ("PAYKVSGDKNEEQVLNAIEAYTEH [ZER1]", 5.02),
    ("DTREEKRFLGEGHHRVQENQMDKA [CHGB]", 5.16),
    ("AELLKANEIIKKLQGDLKTLMGKL [SASS6]", 3.44),
    ("MTLPLLRQTSTKAVQHFYNIKLEG [ESRRG]", 2.44),
    ("NVHATTATGDTALTYACENGHTDV [ANKRD17]", 4.88),
    ("QLRCEMEQQNQEYKILLDVKTRLE [KRT17]", 3.83),
    ("DGIDRWIKEIDEHAPGVPKILVGN [RAB40B]", 3.85),
    ("RDASDPLAGAALEPAGGGRSREAR [SMAD6]", 5.44),
    ("PAGGLAPGGGRGALLDQIRQGIQL [WAS]", 4.54),
    ("LCEKEPLGNVLFSPICLSTSLSLA [SERPINB5]", 2.18),
    ("CKESSPMPVICGPEENYPSLQMSS [NANOGP8]", 3.74),
    ("AAPAAKTRKQAAKKVAPLMAKAIR [ELOA2]", 4.16),
    ("QEQNGRLQAELAAQEALREKAAAL [LRRC45]", 5.31),
    ("SDINSIRRILDELTLCKSDLESQV [KRT34]", 3.1),
    ("YDSFDSEDYPAALPNHKPKGTFKD [ETS1]", 4.83),
    ("RAKGLLGTTVTFDDLMGILCKSVL [FEM1C]", 2.54),
]

---

Experiment: protein stability index of a GFP-peptide fusion (GPS, HEK-293T) (PSI 1-6); higher = more stable
Settings: treatment: MLN4924 1 uM, 8 h; c terminus: a fixed tail appended
Listed below: protein stability index values for each entry.

# Seq Text, protein stability index
records = [
    ("MSGQTLTDRIAAAQYSVTGSAVAR [SNAP91]", 3.98),
    ("EDTHQSPEPEDEPGGPGAMTESLE [RSPH3]", 5.64),
    ("KHFKVQLVDNVYCIGQRRFHTMDE [NCK2]", 2.44),
    ("RVTVSRASSSRSVRTTRGKRKRVD [LMNB1]", 4.34),
    ("GAKDSELASQNKPLWQCYLGRFND [PDS5B]", 3.25),
    ("QRSVSDVASGSTPAPALCCAPYDS [IRX6]", 4.94),
    ("ASLDNGGCALTTFSVLEGEKNNHR [SOAT1]", 4.34),
    ("KGTPASKLILGMPTYGRSFTLASS [CHIT1]", 2.54),
    ("EVPQLPPRASISHVTCVDQSEHTM [C2CD2L]", 4.7),
    ("EDKTFGLKNKKGAKQQKFIKAVTH [ZC3H15]", 4.39),
    ("TIIPILQHLKYKEHPEALSCLLLQ [INTS3]", 2.25),
    ("RLHLAFKRQVPREQAQAYAERLGV [RAB40A]", 3.12),
    ("PRAVFVLLEERRPADSAQLLSLNS [TFE3]", 2.4),
    ("SHRFPEDHDPTIEDAYKIRIRIDD [RIT1]", 4.28),
    ("KGVQQKRPSEAQSVILRRYFLELT [DENND6A]", 2.57),
    ("FDVKNDRYIVNGSHEANKLQDMLD [EIF5]", 3.81),
    ("LGSTKLSDKDKAVGIFNTVINPML [OR3A1]", 3.19),
    ("ESRRQQILREFEELHRRLDEEQQV [TRIM39]", 4.8),
    ("WVFGTSFLPFLLCAVLLSAVQAQA [FADS1]", 2.51),
    ("RKLRKTVNGDGSRENGNNSSDKVR [PHTF1]", 4.99),
    ("AAGEQLQQQHVSCQVFPERLAQGN [ATP23]", 4.5),
    ("LTQKRSQLVKKLNDSDHQSSTSPL [VPS39]", 4.69),
    ("ALCATDVKFISNPPSMVAAGSVVA [CCND1]", 3),
    ("FLDLMETIDKQREEMAKSSRASAA [LRRC45]", 4.08),
    ("EQILELLVLEQFLTILPTEIETWV [ZNF449]", 2.73),
    ("NMSREPFSTRALVLSILHATLPGI [SOAT2]", 2.93),
    ("QLENEQSQENSINPIQKEEDEGVD [SPANXN3]", 5.67),
]

---

Listed below: protein stability index values for each entry.
Test: protein stability index of a GFP-peptide fusion (GPS, HEK-293T) (PSI 1-6); higher = more stable
Conditions: treatment: MLN4924 1 uM, 8 h; c terminus: a fixed tail appended

# Seq Text, protein stability index
data = [
    ("ILFLPCLRKKILKIRHGWEDVTKI [STEAP1]", 2.46),
    ("QGMEGIKVFLHERELWLKFHEVGT [TBX5]", 2.17),
    ("PPPKTNLTPGQSDSAKREVKQKIS [FAN1]", 5.35),
    ("GSSLSGSLCSLLESQSTSLRGSYN [LURAP1L]", 2.87),
    ("GARPVSSAASVYAGAGGSGSRISV [KRT18]", 3.75),
    ("FMAYEQIKRLVGSDQETLRIHERL [SLC25A25]", 2.97),
    ("AGNSTSGSRAGASSFSDPFFVVET [KCNA3]", 3.58),
    ("EKELVFDIDMTDYDDVRRCCSSAD [PRIM1]", 4.7),
    ("VPRTLSPHQYHSVHGVGMVPEWSD [TBX5]", 3.77),
    ("NREACRDLSGRRLRDVNHEKAMAE [SDE2]", 4.87),
    ("FEQILSLPELKANPFKERICRVFS [CIB1]", 2.38),
    ("QRISCFQSTVKCLTVLQRLDVWLS [WDR41]", 2.41),
    ("NGDLSRSLSPSPLGSSAASTALER [FCHO1]", 4.83),
    ("VLNPHPSLGYKEIRKGESRSEALA [CHGA]", 4.5),
    ("FLSGLAFRVFHCTQYVRHSSDPFY [TPH1]", 2.99),
    ("LASLPLKADTKGFCNISLFEDLPL [PLAGL1]", 2.43),
    ("LKLVSFSKLCTSYSHSSTRDGRRD [GOSR1]", 2.79),
    ("TQPTHGQFALTNGDPLNCHSYLSG [NR2F2]", 3.87),
    ("YVKYQVAIHQDPPDECGKTEFTRF [ATE1]", 2.56),
    ("RERKKNWGGQEDREPAGRWKEGRP [PBXIP1]", 4.73),
    ("QLHAKIDAAEEEKYDMEVRVQKTS [TNNI2]", 5.22),
    ("VQIRRLEAAGESLEEEIRRKQILL [ZC2HC1C]", 3.45),
    ("CETTLFALRMATWNQILDPWVYIL [PTGFR]", 2.93),
    ("LEHGADPTVKDLIGGFTALHYAAM [ASB7]", 2.54),
    ("SLNGPLSTSRHVMAPVMAHVDPEE [ADAMTS4]", 4.49),
    ("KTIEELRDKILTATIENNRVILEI [KRT13]", 2.71),
    ("DLKTLSDDIKESLESEGKNSKKEE [ATE1]", 5.32),
]
